biological target: KRAS G12D (Homo sapiens, UniProt P01116, G12D); construct: host or cells: AsPC-1 human pancreatic cancer cells; assay: Evaluation of KRAS degradation activity on AsPC-1 by Cell ELISA (Test Example 1); assay type: cell-based; conditions: degradation rate of KRAS G12D at 1 μM in AsPC-1 cells, cultured overnight, corrected with β-actin
Sequence (P01116 1-188 isoform P01116-2 G12D): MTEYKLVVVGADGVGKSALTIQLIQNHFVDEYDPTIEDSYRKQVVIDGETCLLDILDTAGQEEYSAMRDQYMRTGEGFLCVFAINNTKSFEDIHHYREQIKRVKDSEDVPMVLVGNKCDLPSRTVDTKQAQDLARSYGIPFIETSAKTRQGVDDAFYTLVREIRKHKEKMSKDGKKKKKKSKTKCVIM
Lab note: compare % degradation with 40%, writing t if less and f if equal or more.

# check: % degradation < 40% for `CO[C@@H](C)COc1cc(O[C@H]2CCNC2)c2cc(C3CC3)c(-c3c(C)c(F)cc4[nH]ncc34)c(OCc3ccc(C(=O)N4CCN(C(=O)c5ccc6c(c5)CN(C(=O)c5cc(C(C)C)c(O)cc5O)C6)C[C@@H]4C)cc3)c2n1`
t

# check: % degradation < 40% for Cc1c(F)cc2[nH]ncc2c1-c1c(C2CC2)cc2c(N3C[C@@H]4C[C@H]3CN4)nc(OC3CCOCC3)nc2c1OCc1ccc(C(=O)N2CCN(C3CCN(Cc4ccc5c(c4)CN(C(=O)c4cc(C(C)C)c(O)cc4O)C5)CC3)CC2)cc1 (atropisomer, axis not shown)
f

# check: % degradation < 40% for CO[C@@H](O)COc1nc(N(C)[C@H]2CCNC2)c2cc(C3CC3)c(-c3c(C)c(F)cc4[nH]ncc34)c(OCc3ccc(C(=O)N4CCN(C(=O)c5ccc6c(c5)CN(C(=O)c5cc(C(C)C)c(O)cc5O)C6)C[C@@H]4C)cc3)c2n1 (atropisomer, axis not shown)
f

# check: % degradation < 40% for Cc1c(F)cc2[nH]ncc2c1-c1c(C2CC2)cc2c(N3C[C@@H]4C[C@H]3CN4)nc(OC3CCOCC3)nc2c1OCc1ccc(C(=O)N2CCN(C(=O)c3ccc4c(c3)CN(C(=O)c3cc(C(C)C)c(O)cc3O)C4)CC2)cc1 (atropisomer, axis not shown; (M))
f

# check: % degradation < 40% for Cc1c(F)cc2[nH]ncc2c1-c1c(C2CC2)cc2c(N3C[C@@H]4C[C@H]3CN4)nc(OC3CCOCC3)nc2c1OCc1ccc(CN2CCN(C(=O)c3ccc4c(c3)CN(C(=O)c3cc(C(C)C)c(O)cc3O)C4)CC2)cc1 (atropisomer, axis not shown)
t

# check: % degradation < 40% for Cc1c(F)cc2[nH]ncc2c1-c1c(C2CC2)cc2c(N3C[C@@H]4C[C@H]3CN4)nc(OC3CCOCC3)nc2c1OCc1ccc(C(=O)N2CCN(C(=O)c3ccc4c(c3)CN(C(=O)c3cc(C(C)C)c(O)cc3O)C4)C[C@@H]2C)cc1 (atropisomer, axis not shown)
f

# check: % degradation < 40% for Cc1c(F)cc2[nH]ncc2c1-c1c(C2CC2)cc2c(N3C[C@@H]4C[C@H]3CN4)nc(OC3CCOCC3)nc2c1OCc1ccc(C(=O)N2CCN(C(=O)c3ccc4c(c3)CN(C(=O)c3cc(C(C)C)c(O)cc3O)C4)C[C@H]2C)cc1 (atropisomer, axis not shown)
f

----------
tested on: human G12D mutant KRAS-positive pancreatic cancer line AsPC-1; assay: Non-anchorage-dependent cell growth inhibitory effect, spheroid 3D cell culture (Test Example 2); type: cell-based; details: Homo sapiens, ASPC1, 144 h; AsPC-1 spheroid 3D culture, 6 days, CellTiter Glo 2.0
Field: IC50. Provide a value for each of the compounds that follow.
The reply should be a number in nM, with the unit left off.

Consider Cc1c(F)cc2[nH]ncc2c1-c1c(C2CC2)cc2c(N3C[C@@H]4C[C@H]3CN4)nc(OC3CCOCC3)nc2c1OCc1ccc(C(=O)N2CCN(C(=O)c3ccc4c(c3)CN(C(=O)c3cc(C(C)C)c(O)cc3O)C4)C[C@@H]2C)cc1 (atropisomer, axis not shown) [Example 2] . Its measured IC50 is 1900

Consider Cc1c(F)cc2[nH]ncc2c1-c1c(C2CC2)cc2c(N3C[C@@H]4C[C@H]3CN4)nc(OC3CCOCC3)nc2c1OCc1ccc(C(=O)N2CCN(Cc3ccc4c(c3)CN(C(=O)c3cc(C(C)C)c(O)cc3O)C4)CC2)cc1 (atropisomer, axis not shown) [Example 6] . Its measured IC50 is 3600

----------
system: human G12D mutant KRAS-positive pancreatic cancer line AsPC-1; assay: Non-anchorage-dependent cell growth inhibitory effect, spheroid 3D cell culture (Test Example 2); assay type: cell-based; settings: Homo sapiens, ASPC1, 144 h; AsPC-1 spheroid 3D culture, 6 days, CellTiter Glo 2.0
Field: pIC50. Provide a value for each of the compounds that follow.
pIC50 (log units): -log10 of the concentration in mol/L.

Consider Cc1c(F)cc2[nH]ncc2c1-c1c(C2CC2)cc2c(N3C[C@@H]4C[C@H]3CN4)nc(OC3CCOCC3)nc2c1OCc1ccc(C(=O)N2CCN(C3CCN(Cc4ccc5c(c4)CN(C(=O)c4cc(C(C)C)c(O)cc4O)C5)CC3)CC2)cc1 (atropisomer, axis not shown) [Example 11] . Its measured pIC50 is 5.54

Consider Cc1c(F)cc2[nH]ncc2c1-c1c(C2CC2)cc2c(N3C[C@@H]4C[C@H]3CN4)nc(OC3CCOCC3)nc2c1OCc1ccc(C(=O)N2CCN(CC3CN(Cc4ccc5c(c4)CN(C(=O)c4cc(C(C)C)c(O)cc4O)C5)C3)CC2)cc1 (atropisomer, axis not shown) [Example 12] . Its measured pIC50 is 5.46

Consider Cc1c(F)cc2[nH]ncc2c1-c1c(C2CC2)cc2c(N3C[C@@H]4C[C@H]3CN4)nc(OC3CCOCC3)nc2c1OCc1ccc(C(=O)N2C[C@H]3CN(Cc4ccc5c(c4)CN(C(=O)c4cc(C(C)C)c(O)cc4O)C5)C[C@H]3C2)cc1 (atropisomer, axis not shown) [Example 4] . Its measured pIC50 is 5.29

Consider Cc1c(F)cc2[nH]ncc2c1-c1c(C2CC2)cc2c(N3C[C@@H]4C[C@H]3CN4)nc(OC3CCOCC3)nc2c1OCc1ccc(C(=O)N2C3CCC2CN(Cc2ccc4c(c2)CN(C(=O)c2cc(C(C)C)c(O)cc2O)C4)C3)cc1 [Example 9] . Its measured pIC50 is 5.47

Consider Cc1c(F)cc2[nH]ncc2c1-c1c(C2CC2)cc2c(N3C[C@@H]4C[C@H]3CN4)nc(OC3CCOCC3)nc2c1OCc1ccc(C(=O)N2CCN(C(=O)c3ccc4c(c3)CN(C(=O)c3cc(C(C)C)c(O)cc3O)C4)CC2)cc1 (atropisomer, axis not shown; (M)) [Example 1] . Its measured pIC50 is 5.48

Consider Cc1c(F)cc2[nH]ncc2c1-c1c(C2CC2)cc2c(N3C[C@@H]4C[C@H]3CN4)nc(OC3CCOCC3)nc2c1OCc1ccc(C(=O)N2CCN(CCCOc3ncc4c(n3)CCN(C(=O)c3cc(C(C)C)c(O)cc3O)C4)CC2)cc1 (atropisomer, axis not shown) [Example 19] . Its measured pIC50 is 5.64

Consider CO[C@@H](O)COc1nc(N(C)[C@H]2CCNC2)c2cc(C3CC3)c(-c3c(C)c(F)cc4[nH]ncc34)c(OCc3ccc(C(=O)N4CCN(C(=O)c5ccc6c(c5)CN(C(=O)c5cc(C(C)C)c(O)cc5O)C6)C[C@@H]4C)cc3)c2n1 (atropisomer, axis not shown) [Example 13] . Its measured pIC50 is 5.70

----------
Field: % degradation. Provide a value for each of the molecules that follow.
molecular target: KRAS G12D (Homo sapiens, UniProt P01116, G12D); construct: host or cells: AsPC-1 human pancreatic cancer cells; assay: Evaluation of KRAS degradation activity on AsPC-1 by Cell ELISA (Test Example 1); assay type: cell-based; details: degradation rate of KRAS G12D at 1 μM in AsPC-1 cells, cultured overnight, corrected with β-actin
The reply should be a number in %, with the unit left off.

Consider Cc1c(F)cc2[nH]ncc2c1-c1c(C2CC2)cc2c(N3C[C@@H]4C[C@H]3CN4)nc(OC3CCOCC3)nc2c1OCc1ccc(C(=O)N2CCN(CC3CN(Cc4ccc5c(c4)CN(C(=O)c4cc(C(C)C)c(O)cc4O)C5)C3)CC2)cc1 (atropisomer, axis not shown) [Example 12] . Its measured % degradation is 20

Consider Cc1c(F)cc2[nH]ncc2c1-c1c(C2CC2)cc2c(N3C[C@@H]4C[C@H]3CN4)nc(OC3CCOCC3)nc2c1OCc1ccc(C(=O)N2CCN(C(C)C(=O)c3ccc4c(c3)CN(C(=O)c3cc(C(C)C)c(O)cc3O)C4)CC2)cc1 (stereo partly drawn) [Example 18] . Its measured % degradation is 20

Consider Cc1c(F)cc2[nH]ncc2c1-c1c(C2CC2)cc2c(N3C[C@@H]4C[C@H]3CN4)nc(OC3CCOCC3)nc2c1OCc1ccc(C(=O)N2CCC3(CC2)CN(Cc2ccc4c(c2)CN(C(=O)c2cc(C(C)C)c(O)cc2O)C4)C3)cc1 (atropisomer, axis not shown) [Example 10] . Its measured % degradation is 37

Consider Cc1c(F)cc2[nH]ncc2c1-c1c(C2CC2)cc2c(N3C[C@@H]4C[C@H]3CN4)nc(OC3CCOCC3)nc2c1OCc1ccc(C(=O)N2CCN(Cc3ccc4c(c3)CN(C(=O)c3cc(C(C)C)c(O)cc3O)C4)CC2)cc1 (atropisomer, axis not shown) [Example 6] . Its measured % degradation is 25

Consider Cc1c(F)cc2[nH]ncc2c1-c1c(C2CC2)cc2c(N3C[C@@H]4C[C@H]3CN4)nc(OC3CCOCC3)nc2c1OCc1ccc(C(=O)N2CCCN(Cc3ccc4c(c3)CN(C(=O)c3cc(C(C)C)c(O)cc3O)C4)CC2)cc1 (atropisomer, axis not shown) [Example 7] . Its measured % degradation is 20

Consider Cc1c(F)cc2[nH]ncc2c1-c1c(C2CC2)cc2c(N3C[C@@H]4C[C@H]3CN4)nc(OC3CCOCC3)nc2c1OCc1ccc(C(=O)N2C[C@H]3CN(Cc4ccc5c(c4)CN(C(=O)c4cc(C(C)C)c(O)cc4O)C5)C[C@H]3C2)cc1 (atropisomer, axis not shown) [Example 4] . Its measured % degradation is 15
